- system.tested: CYP2B6 (Homo sapiens)
- Sequence (P20813 1-491): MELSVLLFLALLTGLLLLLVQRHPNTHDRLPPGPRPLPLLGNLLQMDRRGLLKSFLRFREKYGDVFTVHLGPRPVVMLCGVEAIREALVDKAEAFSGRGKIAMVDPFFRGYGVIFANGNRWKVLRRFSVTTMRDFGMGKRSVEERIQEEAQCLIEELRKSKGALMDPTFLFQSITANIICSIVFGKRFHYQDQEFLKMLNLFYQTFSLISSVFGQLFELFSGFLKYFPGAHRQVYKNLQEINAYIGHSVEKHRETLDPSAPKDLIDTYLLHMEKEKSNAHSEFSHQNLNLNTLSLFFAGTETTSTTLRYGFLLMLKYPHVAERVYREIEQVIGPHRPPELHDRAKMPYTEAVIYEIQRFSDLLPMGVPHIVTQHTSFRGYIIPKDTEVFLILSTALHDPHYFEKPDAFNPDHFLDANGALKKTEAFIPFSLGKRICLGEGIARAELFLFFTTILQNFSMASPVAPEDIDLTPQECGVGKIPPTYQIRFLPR
- assay.explanation: CYP inhibition in pooled human liver microsomes, CYP2B6
- Type: biochemical
- condition.notes: CYP2B6, Bupropion hydroxylation
experimental.endpoint: IC50
Write the numeric value and append its unit.

### Prompt Notebook: pull reported IC50 for CYP2B6 (Homo sapiens), entry CC1(C)[C@@H](O)CC[C@]2(C)[C@H]3C[C@@H](O)[C@@H]4[C@@H]([C@@](C)(O)CCCNCc5ccccc5)CC[C@@]4(C)[C@]3(C)CC[C@@H]12
### Response 2.21 µM
